Experiment: HT1080 cell viability loss – fluorescence readout (AID 620);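 note: cells exposed to compound overnight then 4 h with Alamar Blue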
Conditions: at 10 µM, active compounds read high
In all, about 87,000 compounds went through this assay and about 360 (0.41%) were called active. Shown is part of a subset that was picked to be rich in actives.
Mark f for cytotoxicity values under 20%, and t for everything at or above.

The following molecules have reported results that may help.
molecule	label_class
CN(C)CCNS(=O)(=O)c1ccc(Cl)cc1	f
CNC(=O)CSc1nc2nc(C)cc(C)n2n1	f
COC(=O)c1ccc(C)c(NS(=O)(=O)c2ccc3c(c2)OCCO3)c1	t
O=c1cc(-c2ccccc2)c2ccccc2[nH]1	f
COc1ccccc1NS(=O)(=O)c1cccs1	f
COc1cccc(C2N(c3ccccn3)C(=O)C3CCCN32)c1OC (configuration not stated)	f
Cn1c(SCc2cc(=O)[nH]c3ccccc23)nnc1-c1ccc(Br)cc1	f
COc1ccc2nc(-c3cccc(N)c3)[nH]c2c1	t
O=C(NCc1ccccn1)[C@@H]1C[C@H]1[C@@H](NP(=O)(c1ccccc1)c1ccccc1)c1ccccc1	f
Cc1cc(C(=O)CSc2nncs2)c(C)n1-c1ccc2c(c1)OCO2	t

Determine whether measured cytotoxicity meets or exceeds 20% for COc1cccc(NC(=O)CC2C(=O)NC3CCCCC3N2C(=O)c2ccc(F)cc2)c1 (configuration not stated)
f

Determine whether measured cytotoxicity meets or exceeds 20% for O=c1cc(-c2ccccc2)[nH]c2ccccc12
t
